All figures here come from patent US4476122A.

Overview of recorded MIC for various molecules
- System: Klebsiella pneumoniae Exp. 52 145
- Experimental Protocol: MIC, liquid medium dilution
- Type: cell-based
- Experimental Conditions: EXP.52145, 48 h, read-out: MIC
Dear colleague, please return just the value in µg/mL, with no unit written.

Sample records with MIC:
                                   molecule  endpoint_unit  measurement
0  CO/N=C(/C(=O)NC1C(=O)N2C(C(=O)O)=C(C)CS[C@H]12)c1csc(N)n1 (some centres unmarked)          µg/mL          100
1  CO/N=C(\C(=O)NC1C(=O)N2C(C(=O)O)=C(CSc3nnnn3C)CS[C@H]12)c1csc(N)n1 (some centres unmarked)          µg/mL         0.02
2  CO/N=C(\C(=O)NC1C(=O)N2C(C(=O)O)=C(CSc3nnc(C)s3)CS[C@H]12)c1csc(N)n1 (some centres unmarked)          µg/mL          0.1
3  CO/N=C(\C(=O)NC1C(=O)N2C(C(=O)O)=C(C)CSC12)c1csc(N)n1 (centres unmarked)          µg/mL          0.1

Please find the next molecule below.
Entry under review: CO/N=C(\C(=O)NC1C(=O)N2C(C(=O)O)=C(CSC(C)=O)CSC12)c1csc(N)n1 (centres unmarked) . Reported MIC? 0.1
